assay_endpoint: logP

- mol: "Cc1ccc(N2CCN(CCNC(=O)c3ccc(F)cc3)CC2)cc1"
  test_result: 2.95

For the compound COc1cccc(C(=O)NCCN2CCN(c3ncccc3C#N)CC2)c1 , what logP is on record?
2.47

Ok, now O=C(NCCN1CCN(c2ccc(Cl)cc2)CC1)c1ccc(F)cc1
3.7

Ok, now COc1cccc(C(=O)NCCN2CCN(c3ccc(Cl)cc3)CC2)c1
3.31

====

# logP annotations
Write the number on its own, no unit after it.

- mol: "COc1cccc(C(=O)NCCN2CCN(c3ccc(Cl)cn3)CC2)c1"
  logP: 3.24
- mol: "N#Cc1cccnc1N1CCN(CCNC(=O)c2ccc(F)cc2)CC1"
  logP: 2.33
- mol: "COc1cccc(C(=O)NCCN2CCN(c3ccc(C)cc3)CC2)c1"
  logP: 2.83
- mol: "O=C(NCCN1CCN(c2ccc(Cl)cn2)CC1)c1ccc(F)cc1"
  logP: 3.36

Attention now shifts to the item below.
For the compound N#Cc1ccc(N2CCN(CCNC(=O)c3ccc(F)cc3)CC2)cc1 , what logP is on record?
3.02
